IC50 for assorted compounds
Target: human JAK2 (Homo sapiens (Human))
Conditions: read-out: JAK2 IC50
READOUT LABEL: IC50 (nM)

• COc1ccc(C(F)(F)F)cc1-c1cccc2nc(Nc3ccc4c(c3)CCNCC4)nn12 = 23.4
• CC(C)COc1ccc(C(F)(F)F)cc1-c1cccn2nc(Nc3ccc4c(c3)CCN(CC(=O)N(C)C)CC4)nc12 = 3000
• COc1ccc(Nc2nc3c(N4CCN(S(C)(=O)=O)CC4)cccn3n2)cc1 = 60.4
• CN1CCN(c2ccc(Nc3nc4cccc(-c5cccc(S(C)(=O)=O)c5)n4n3)cc2)CC1 = 9.2
• COc1ccc(Nc2nc3c(NCc4ccccc4OC)cccn3n2)cn1 = 42.7
• CCn1cc(Nc2nc3c(-c4ccc(S(C)(=O)=O)cc4)cccn3n2)cn1 = 1.88
• CN1CCN(c2cccc(Nc3nc4cccc(-c5ccc(S(C)(=O)=O)cc5)n4n3)c2)CC1 = 2.8
• CN1CCN(c2ccc(Nc3nc4c(NCc5cccc(N(C)S(C)(=O)=O)c5)cccn4n3)cc2)CC1 = 145

###

// values below are reported pIC50
Biological target: UniProtKB Q05397
Sequence (Q05397 whole entry): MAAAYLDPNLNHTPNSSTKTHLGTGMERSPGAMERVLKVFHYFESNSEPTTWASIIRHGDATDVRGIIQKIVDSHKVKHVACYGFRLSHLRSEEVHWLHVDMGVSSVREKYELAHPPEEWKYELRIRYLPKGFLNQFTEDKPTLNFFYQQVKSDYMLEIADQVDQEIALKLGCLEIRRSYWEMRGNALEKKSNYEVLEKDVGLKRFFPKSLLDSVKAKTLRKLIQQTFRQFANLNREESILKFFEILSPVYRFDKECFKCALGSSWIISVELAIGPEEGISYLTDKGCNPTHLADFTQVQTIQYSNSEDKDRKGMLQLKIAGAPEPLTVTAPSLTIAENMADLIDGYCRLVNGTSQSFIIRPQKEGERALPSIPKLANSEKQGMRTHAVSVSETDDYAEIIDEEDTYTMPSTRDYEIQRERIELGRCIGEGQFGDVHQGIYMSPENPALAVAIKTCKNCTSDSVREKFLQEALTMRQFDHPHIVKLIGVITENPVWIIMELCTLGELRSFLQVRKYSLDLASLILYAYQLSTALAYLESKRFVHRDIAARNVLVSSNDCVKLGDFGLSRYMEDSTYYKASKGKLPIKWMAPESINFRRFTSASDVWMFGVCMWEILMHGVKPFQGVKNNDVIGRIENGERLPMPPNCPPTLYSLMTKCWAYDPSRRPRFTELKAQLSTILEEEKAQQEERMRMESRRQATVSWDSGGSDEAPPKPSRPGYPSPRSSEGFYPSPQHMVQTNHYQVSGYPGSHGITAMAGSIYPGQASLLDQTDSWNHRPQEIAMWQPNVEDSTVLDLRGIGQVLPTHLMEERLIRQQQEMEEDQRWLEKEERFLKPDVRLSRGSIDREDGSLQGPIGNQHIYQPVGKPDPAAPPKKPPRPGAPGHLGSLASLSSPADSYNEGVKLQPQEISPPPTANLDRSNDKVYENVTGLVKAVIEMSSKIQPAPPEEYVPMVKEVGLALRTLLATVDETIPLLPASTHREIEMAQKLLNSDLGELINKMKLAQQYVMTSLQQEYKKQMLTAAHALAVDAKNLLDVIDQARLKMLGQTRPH
Conditions: read-out: FAK IC50
pIC50: −log10 of the molar value.
READOUT LABEL: pIC50

- CN1CCN(c2ccc(Nc3nc4c(/C=C/c5ccccc5N(C)S(C)(=O)=O)cccn4n3)cc2)CC1: 6.00
- CN(C)C(=O)CN1CCC(c2ccc(Nc3nc4c(-c5ccc[nH]c5=O)cccn4n3)cc2)CC1: 5.70
- COc1ccc(C(F)(F)F)cc1-c1cccn2nc(Nc3ccc(OCCN4CCOCC4)cc3)nc12: 5.19
- CN1CCN(c2ccc(Nc3nc4c(Nc5ccccc5S(C)(=O)=O)cccn4n3)cc2)CC1: 6.42
- CN1CCN(c2ccc(Nc3nc4c(N(C)Cc5ccccc5N(C)S(C)(=O)=O)cccn4n3)cc2)CC1: 7.20
- COc1ccccc1-c1cccn2nc(Nc3ccc4c(c3)CCN(CCS(C)(=O)=O)CC4)nc12: 5.00
- CN1CCN(c2ccc(Nc3nc4c(C#Cc5ccccc5N(C)S(C)(=O)=O)cccn4n3)cc2)CC1: 6.28
- CN1CCN(c2ccc(Nc3nc4c(-c5ccc(S(=O)(=O)N(C)C)cc5)cccn4n3)cc2)CC1: 6.10
- CN1CCN(c2cccc(N(c3cccc(N4CCN(C)CC4)c3)c3nc4c(-c5ccc(S(C)(=O)=O)cc5)cc(F)cn4n3)c2)CC1: 5.98
- CN(c1ccccc1CNc1cccn2nc(Nc3ccc(OCCN4CCCC4)cc3)nc12)S(C)(=O)=O: 7.89
- CN(C)C(=O)CN1CCc2ccc(Nc3nc4c(-c5cccc6c5OC(F)(F)O6)cccn4n3)cc2CC1: 5.77
- CN1CCN(c2ccc(Nc3nc4c(Nc5cccc(S(C)(=O)=O)c5)cccn4n3)cc2)CC1: 5.00
- CN1Cc2ccc(Nc3nc4c(-c5ccc(S(C)(=O)=O)cc5)cccn4n3)cc2C1: 6.09
- COc1cccc(Nc2nc3c(-c4ccc(S(C)(=O)=O)cc4)cccn3n2)c1: 5.87
- CN1CCN(c2cccc(Nc3nc4c(NCc5cccnc5N(C)S(C)(=O)=O)cccn4n3)c2)CC1: 7.15
- COc1ccccc1-c1cccn2nc(Nc3ccc(N4CCOCC4)cc3)nc12: 5.19

###

Target: human JAK2 (Homo sapiens (Human), UniProt O60674)
Sequence (O60674 815-1132): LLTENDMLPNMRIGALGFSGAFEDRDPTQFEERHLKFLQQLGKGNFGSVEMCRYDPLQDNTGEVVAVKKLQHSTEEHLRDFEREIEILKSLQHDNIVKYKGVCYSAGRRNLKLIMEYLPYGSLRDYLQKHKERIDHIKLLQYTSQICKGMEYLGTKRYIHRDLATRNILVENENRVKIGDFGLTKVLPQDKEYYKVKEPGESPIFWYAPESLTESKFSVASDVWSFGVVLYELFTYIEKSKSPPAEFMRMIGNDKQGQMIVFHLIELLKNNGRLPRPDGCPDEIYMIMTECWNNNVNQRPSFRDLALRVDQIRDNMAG
Details: read-out: JAK2 IC50
pIC50: −log10 of the molar value.
Reported values of pIC50 for individual entries
READOUT LABEL: pIC50

• CN1CCN(c2cncc(Nc3nc4c(NCc5ccccc5N(C)S(C)(=O)=O)cccn4n3)n2)CC1 = 5.19
• CS(=O)(=O)c1ccc(-c2cccn3nc(Nc4ccc(CN5CCS(=O)(=O)CC5)cc4)nc23)cc1 = 9.12
• CN1CCN(c2cccc(Nc3nc4c(NCc5ccccc5CN(C)S(C)(=O)=O)cccn4n3)c2)CC1 = 6.66
• CN1CCN(c2ccc(Nc3nc4c(-c5ccc(CS(C)(=O)=O)cc5)cccn4n3)cc2)CC1 = 9.15
• CN(C)C(=O)CN1CCc2ccc(Nc3nc4c(-c5cccc6c5OC(F)(F)O6)cccn4n3)cc2CC1 = 7.52
• CN1CCN(c2ccc(Nc3nc4c(-c5ccccc5S(C)(=O)=O)cccn4n3)cc2)CC1 = 5.88
• CN1CCN(c2ccc(Nc3nc4c(NCc5cccnc5)cccn4n3)cc2)CC1 = 6.31
• CN1CCN(c2cccc(Nc3nc4c(-c5cnn(-c6ccc(F)cc6)c5)cccn4n3)c2)CC1 = 8.25

###

Target: human JAK2 (Homo sapiens (Human), UniProt O60674)
Details: read-out: JAK2 IC50
pIC50: −log10 of the molar value.
# key: entry, value: pIC50
READOUT LABEL: pIC50

* CN1CCN(c2ccc(Nc3nc4c(-c5ccc(S(C)(=O)=O)cc5)cc(C(F)(F)F)cn4n3)cn2)CC1 [Example 104] | 6.03
* COc1cccc(CNc2cccn3nc(Nc4ccc(C)nc4)nc23)c1 [Example 405] | 5.99
* CCCOc1ccc(Cl)cc1-c1cccn2nc(Nc3ccc4c(c3)CCNCC4)nc12 [Example 307] | 6.08
* CC(Nc1cccn2nc(Nc3ccc(N4CCN(C)CC4)cc3)nc12)c1ccccc1N(C)S(C)(=O)=O (stereo not shown) [Example 197] | 6.38

###

Target: human JAK2 (Homo sapiens (Human), UniProt O60674)
Conditions: read-out: JAK2 IC50
pIC50: −log10 of the molar value.
READOUT LABEL: pIC50

- CN1CCN(c2cccc(Nc3nc4c(OCc5cccc(Cl)c5)cccn4n3)c2)CC1: 7.00
- COc1ccccc1CNc1cccn2nc(Nc3ccc(N4CCN(C)CC4)cc3)nc12: 7.91
- COCc1ccccc1-c1cccc2nc(Nc3ccc4c(c3)CCN(CC(=O)N(C)C)CC4)nn12: 7.32
- Cn1ncc2c(-c3cccn4nc(Nc5ccc6c(c5)CCNCC6)nc34)cccc21: 7.78
- c1cc(-c2ccncc2)c2nc(Nc3ccc(OCCN4CCCC4)cc3)nn2c1: 5.52
- CS(=O)(=O)c1ccc(-c2cccn3nc(Nc4cccc(C5CCN(CC(N)=O)CC5)c4)nc23)cc1: 9.39
- CS(=O)(=O)c1ccc(-c2cccn3nc(NCc4cccnc4)nc23)cc1: 5.56
- COc1ccc(C(F)(F)F)cc1-c1cccn2nc(Nc3cccc(N4CCN(C)CC4)c3)nc12: 6.80
- CN1CCN(c2cccc(Nc3nc4c(Oc5ccc(S(C)(=O)=O)cc5)cccn4n3)c2)CC1: 5.78
- CN1CCN(c2cccc(Nc3nc4c(NCc5ccccc5S(C)(=O)=O)cccn4n3)c2)CC1: 7.58
- CN1CCN(c2ccc(Nc3nc4cccc(-c5cccc(NS(C)(=O)=O)c5)n4n3)cc2)CC1: 7.72
- CS(=O)(=O)c1ccc(-c2cccn3nc(Nc4cccc(N5CCN(CCCF)CC5)c4)nc23)cc1: 8.31
- CS(=O)(=O)c1cccc(-c2cccn3nc(Nc4ccc(OCCN5CCCC5)cc4)nc23)c1: 8.52
- CS(=O)(=O)c1ccc(-c2cccn3nc(Nc4cccc(S(C)(=O)=O)c4)nc23)cc1: 8.25
- COc1ncc(C(F)(F)F)cc1-c1cccn2nc(Nc3ccc(C4CCNCC4)cc3)nc12: 6.88
- COc1ccccc1Nc1nc2c(-c3cccc(C(F)(F)F)c3)cccn2n1: 5.52
- CN(c1ncccc1CNc1cccn2nc(Nc3ccc(OCCN4CCCC4)cc3)nc12)S(C)(=O)=O: 7.39
- CN1Cc2ccc(Nc3nc4c(-c5ccc(S(C)(=O)=O)cc5)cccn4n3)cc2C1: 9.14
- CN1CCN(c2ccc(Nc3nc4c(C#Cc5ccccc5N(C)S(C)(=O)=O)cccn4n3)cc2)CC1: 8.58
- COc1ccccc1-c1cccn2nc(Nc3cccc(N4CCN(C)CC4)c3)nc12: 7.57
- CN1CCN(c2ccc(Nc3nc4c(NCc5ccccc5S(C)(=O)=O)cccn4n3)cc2)CC1: 7.88
- CC(=O)Nc1cccc(Nc2nc3c(-c4ccc(S(C)(=O)=O)cc4)cccn3n2)c1: 8.46
- COc1ccc(C(F)(F)F)cc1-c1cccc2nc(Nc3ccc4c(c3)CCN(CCSC)CC4)nn12: 7.57
- CN1CCN(c2cccc(Nc3nc4c(-c5ccc(S(C)(=O)=O)cc5)cccn4n3)c2)C(=O)C1: 8.79
- COc1ccccc1Nc1nc2cccc(-c3cccc(S(C)(=O)=O)c3)n2n1: 5.92
- CN1CCN(c2ccc(Nc3nc4c(OCc5ccccc5C#N)cccn4n3)cc2)CC1: 7.82
- COc1cc(F)ccc1-c1cccn2nc(Nc3ccc4c(c3)CCN(CC(=O)N(C)C)CC4)nc12: 7.33
- CN(c1ccccc1CNc1cccn2nc(Nc3ccc4cnccc4c3)nc12)S(C)(=O)=O: 6.93
- c1cncc(-c2cccn3nc(Nc4ccc(N5CCOCC5)cc4)nc23)c1: 7.59
- FC(F)COc1ccc(C(F)(F)F)cc1-c1cccn2nc(Nc3ccc4c(c3)CCNCC4)nc12: 6.59
- CN1CCN(c2ccc(Nc3nc4c(O)cccn4n3)cc2)CC1: 6.25
- CC(C)S(=O)(=O)c1ccc(-c2cccn3nc(Nc4ccc(N5CCN(C)CC5)cc4)nc23)cc1: 8.68
- CN1CCN(Cc2ccc(Nc3nc4cccc(-c5ccc(S(C)(=O)=O)cc5)n4n3)cc2)CC1: 8.77
